# protocol-summary: Static thermostability (GARDNER method), rigid PVC sheets, 185° C., 0.3 part stabilizer
# experimental-setup: 33 min
property-measured: coloration, GARDNER scale
Answers are plain numbers.

Worked examples follow.
| compound | property-measured | endpoint-result |
| --- | --- | --- |
| CC1=C(C(=O)OCCCl)CC(C(=O)OCCCl)=C(C)N1 [Compound 3] | coloration, GARDNER scale | 14 |
| C#CCOC(=O)C1=C(C)NC(C)=C(C(=O)OCC#C)C1 [Compound 2] | coloration, GARDNER scale | 9 |
| CC1=C(C(=O)OCc2ccccc2)CC(C(=O)OCc2ccccc2)=C(C)N1 [Compound 21] | coloration, GARDNER scale | 14 |
| CC1=C(C(=O)OCc2ccccc2C)CC(C(=O)OCc2ccccc2C)=C(C)N1 [Compound 6] | coloration, GARDNER scale | 14 |
| CC1=C(C(=O)OCc2ccccc2Cl)CC(C(=O)OCc2ccccc2Cl)=C(C)N1 [Compound 5] | coloration, GARDNER scale | 14 |
| C=CCOC(=O)C1=C(C)NC(C)=C(C(=O)OCC=C)C1 [Compound 1] | coloration, GARDNER scale | 10.5 |

Next compound, please.
Report coloration, GARDNER scale, nothing else, for this compound: COc1ccc(COC(=O)C2=C(C)NC(C)=C(C(=O)OCc3ccc(OC)cc3)C2)cc1 [Compound 4] 18

----------
Kindly state coloration, GARDNER scale for each of the entries shown.
# protocol-summary: Static thermostability (GARDNER method), rigid PVC sheets, 185° C., equimolecular quantities
# experimental-setup: 1.55×10^-3 mol, 30 min
Answers are plain numbers.

Some entries whose results are on file:
| molecule | endpoint-result |
| --- | --- |
| COc1ccc(COC(=O)C2=C(C)NC(C)=C(C(=O)OCc3ccc(OC)cc3)C2)cc1 [Compound 4] | 11 |
| c1ccc(-c2cc3ccccc3[nH]2)cc1 [2-Phenyl-indole, 2-phenyl-indole, reference compound] | 14 |
| CC1=C(C(=O)OCc2ccccc2Cl)CC(C(=O)OCc2ccccc2Cl)=C(C)N1 [Compound 5] | 13 |

Hello, please tell me recorded coloration, GARDNER scale for this one: CC1=C(C(=O)OCc2ccccc2)CC(C(=O)OCc2ccccc2)=C(C)N1 [Compound 21] 11

----------
Give measured Oxidation potential for each item. Keep answers brief.
# protocol-summary: Polarographic study of the oxidation potential
# Assay type: physicochemical
# experimental-setup: acetonitrile, 0.1 M lithium perchlorate, vitrous carbon electrode, calomel reference
Numbers only, in volts.

| compound | endpoint-result |
| --- | --- |
| C=CCOC(=O)C1=C(C)NC(C)=C(C(=O)OCC=C)C1 | 0.75 |
| CC1=C(C(=O)OCc2ccccc2)CC(C(=O)OCc2ccccc2)=C(C)N1 | 0.73 |

Dear colleague, could you send me Oxidation potential for each of the items below? Thanks.
1. Cc1cc(C(C)(C)C)c(O)c(C(C)(C)C)c1 [Compound Z, 2,6-diterbutyl-4-methyl-phenol, reference compound]
2. C#CCOC(=O)C1=C(C)NC(C)=C(C(=O)OCC#C)C1
3. Oc1ccc(O)cc1 [Hydroquinone]
4. COc1ccc(O)c(C(C)(C)C)c1
5. COc1ccc(O)cc1

1.11
0.80
0.83
0.81
0.89

----------
# protocol-summary: Static thermostability (GARDNER method), rigid PVC sheets, 210° C., 0.3 part stabilizer
# experimental-setup: 21 min
property-measured: coloration, GARDNER scale

Recorded coloration, GARDNER scale, per entry:
| structure-smiles | coloration, GARDNER scale |
| --- | --- |
| CC1=C(C(=O)OCCOCCCl)CC(C(=O)OCCOCCCl)=C(C)N1 | Burnt |
| CCCCCCC1C(C(=O)OC)=C(C)NC(C)=C1C(=O)OC | Burnt |
| COCCOC(=O)C1=C(C)NC(C)=C(C(=O)OCCOC)C1 | 17 |
| CCOCCOC(=O)C1=C(C)NC(C)=C(C(=O)OCCOCC)C1 | Burnt |
| COC(=O)C1=C(C)NC(C)=C(C(=O)OC)C1C | Burnt |
| CC1=C(C(=O)OCCOc2ccccc2)CC(C(=O)OCCOc2ccccc2)=C(C)N1 | Burnt |

Required: coloration, GARDNER scale, one value per molecule below.
1. COC(=O)C1=C(c2ccccc2)NC(c2ccccc2)=C(C(=O)OC)C1
2. CCCCCCCCCCCCCC1=C(C(=O)OC)CC(C(=O)OC)=C(CCCCCCCCCCCCC)N1

["Burnt", 7]
